# experimentalTarget: T1, cTnI quality control product recombinant protein (human, UniProt P19429 1-210, limits assumed)
# T1 construct: the assay paragraphs only say cTnI; also called cardiac troponin I; cTnI antigen
# T1 sequence (P19429 whole entry): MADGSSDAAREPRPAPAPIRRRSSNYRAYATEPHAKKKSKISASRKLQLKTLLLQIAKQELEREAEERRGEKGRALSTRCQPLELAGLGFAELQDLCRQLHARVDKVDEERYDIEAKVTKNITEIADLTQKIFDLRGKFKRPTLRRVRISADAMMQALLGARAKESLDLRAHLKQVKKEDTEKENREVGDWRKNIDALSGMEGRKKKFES
# assayDetails: capture ELISA, antibody 12.346 ng/ml, cTnI 0.15 ug/ml
The following binders are shown together with reported OD 450 nm values.
Response body: numeric value in OD, unit text excluded.

Exercise: Need OD 450 nm of Anti-cTnI 7B9 monoclonal antibody (recombinant, Sample 1) (antibody, mouse IgG1, kappa, V domains shown, Recombinant mouse antibody expressed in CHO cells; also called WT; Anti-cTnI 7B9 antibody) VH: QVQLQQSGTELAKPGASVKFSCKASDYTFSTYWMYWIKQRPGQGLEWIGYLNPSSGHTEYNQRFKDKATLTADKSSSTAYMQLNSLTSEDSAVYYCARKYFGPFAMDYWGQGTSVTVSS VL: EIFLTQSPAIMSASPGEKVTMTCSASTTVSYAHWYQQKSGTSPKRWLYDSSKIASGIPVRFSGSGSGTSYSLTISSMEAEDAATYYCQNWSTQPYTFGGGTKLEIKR , thanks.
Key: 0.947

Exercise: Need OD 450 nm of Mutation 3 (antibody, V domains shown, other CDR sites as WT) VH: QVQLQQSGTELAKPGASVKFSCKASIYTFSTYWMYWIKQRPGQGLEWIGYLNPSSGHTGYNQRFKDKATLTADKSSSTAYMQLNSLTSEDSAVYYCARKYFGPFVMDYWGQGTSVTVSS VL: EIFLTQSPAIMSASPGEKVTMTCSASTTVSYIHWYQQKSGTSPKRWLYDTSKIASGIPVRFSGSGSGTSYSLTISSMEAEDAATYYCQRWSTQPYTFGGGTKLEIKR , thanks.
Key: 1.41

Exercise: Form field: reported OD 450 nm of Mutation 2 (antibody, V domains shown, other CDR sites as WT) VH: QVQLQQSGTELAKPGASVKFSCKASLYTFSTYWMYWIKQRPGQGLEWIGYLNPSSGHTEYNQRFKDKATLTADKSSSTAYMQLNSLTSEDSAVYYCARKYFGPFIMDYWGQGTSVTVSS VL: EIFLTQSPAIMSASPGEKVTMTCSASTTVSYAHWYQQKSGTSPKRWLYDTSKIASGIPVRFSGSGSGTSYSLTISSMEAEDAATYYCQVWSTQPYTFGGGTKLEIKR
Key: 1.61
